readout kind: melting point

Example cases with answers are listed next.
INSERT INTO measurements (compound, readout_kind, result) VALUES
  ('CN1CCN(NCc2ccc(C(=O)Nc3cccc(Nc4nccc(-c5cccnc5)n4)c3)cc2)CC1.CS(=O)(=O)O [Example 14]', 'melting point', '148 to 150 °C'),
  ('CN1CCN(NCc2ccc(C(=O)Nc3cc(Nc4nccc(-c5cccnc5)n4)ccc3F)cc2)CC1.CS(=O)(=O)O [Example 28]', 'melting point', '142 to 144 °C'),
  ('CS(=O)(=O)O.O=C(Nc1cccc(Nc2nccc(-c3cccnc3)n2)c1)c1ccc(CN2CCCCC2)cc1 [Example 36]', 'melting point', '173 to 175 °C'),
  ('CC(=O)O.CN1CCN(NCc2ccc(C(=O)Nc3ccc(Nc4nccc(-c5cccnc5)n4)cc3)cc2)CC1', 'melting point', '169 to 171 °C'),
  ('CN1CCCN(Cc2ccc(C(=O)Nc3cc(Nc4nccc(-c5cccnc5)n4)ccc3F)cc2)CC1.CS(=O)(=O)O [Example 24]', 'melting point', '125 to 127 °C'),
  ('COc1ccc(NC(=O)c2ccc(CN3CCCN(C)CC3)cc2)cc1Nc1nccc(-c2cccnc2)n1.CS(=O)(=O)O [Example 20]', 'melting point', '140 to 142 °C'),
  ('CS(=O)(=O)O.Cc1ccc(Nc2nccc(-c3cccnc3)n2)cc1NC(=O)c1ccc(CNN2CCN(C)CC2)cc1 [Example 8]', 'melting point', '150 to 152 °C'),
  ('CN1CCN(NCc2ccc(C(=O)Nc3ccc(Nc4nccc(-c5cccnc5)n4)cc3)cc2)CC1.CS(=O)(=O)O [Example 30]', 'melting point', '151 to 153 °C');

We next turn to a different compound, shown below.
// query Return reported melting point; argument: CS(=O)(=O)O.Cc1ccc(Nc2nccc(-c3cccnc3)n2)cc1NC(=O)c1ccc(CN2CCCN(C)CC2)cc1 [Example 6]
// result 168 to 170 °C

====

Assay: Comparative pharmacokinetic test in white rats
Assay type: in vivo, white rats (Sprague-Dawley)
Settings: male, Sprague-Dawley, plasma, po; rat, 100 mg/kg, P.O.
Counter-ions that a name gives are not always drawn.
readout kind: Cmax (ng/mL)
Supply the numeric figure in ng/mL, leaving out any unit text.

// query Return reported Cmax; argument: Cc1ccc(NC(=O)c2ccc(CN3CCN(C)CC3)cc2)cc1Nc1nccc(-c2cccnc2)n1 [Imatinib mesylate, reference compound]
// result 2720

====

Assay: Comparative pharmacokinetic test in white rats
Assay type: in vivo, white rats (Sprague-Dawley)
Details: male, Sprague-Dawley, plasma, po; rat, 100 mg/kg, P.O.
Where a name gives a salt, the structure may show the parent alone.
readout kind: Tmax (h)
Supply the numeric figure in h, leaving out any unit text.

// query Return reported Tmax; argument: Cc1ccc(NC(=O)c2ccc(CN3CCN(C)CC3)cc2)cc1Nc1nccc(-c2cccnc2)n1 [Imatinib mesylate, reference compound]
// result 2.3

====

Assay: Comparative pharmacokinetic test in white rats
Format: in vivo, white rats (Sprague-Dawley)
Details: male, Sprague-Dawley, plasma, po; rat, 100 mg/kg, P.O., trapezoid rule
Counter-ions that a name gives are not always drawn.
readout kind: AUC (ng·h/mL)
Supply the numeric figure in ng·h/mL, leaving out any unit text.

// query Return reported AUC; argument: Cc1ccc(NC(=O)c2ccc(CN3CCN(C)CC3)cc2)cc1Nc1nccc(-c2cccnc2)n1 [Imatinib mesylate, reference compound]
// result 26500
